Listing of recorded EC50 by entry.
Molecular target: Retinoic acid receptor RXR-alpha (Homo sapiens, UniProt P19793)
Sequence (P19793 whole entry): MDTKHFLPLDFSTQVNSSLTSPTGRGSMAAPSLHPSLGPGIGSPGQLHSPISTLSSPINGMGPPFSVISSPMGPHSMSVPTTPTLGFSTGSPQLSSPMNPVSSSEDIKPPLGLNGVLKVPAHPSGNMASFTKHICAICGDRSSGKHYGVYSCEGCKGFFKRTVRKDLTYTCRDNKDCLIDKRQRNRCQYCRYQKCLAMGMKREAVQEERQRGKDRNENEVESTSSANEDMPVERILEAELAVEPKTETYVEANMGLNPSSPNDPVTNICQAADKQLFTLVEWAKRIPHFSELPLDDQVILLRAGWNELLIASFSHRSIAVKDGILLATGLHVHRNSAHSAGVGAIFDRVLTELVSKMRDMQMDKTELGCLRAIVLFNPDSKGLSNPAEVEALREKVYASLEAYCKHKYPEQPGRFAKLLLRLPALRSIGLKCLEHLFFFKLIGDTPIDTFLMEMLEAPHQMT
Assay: Transcriptional activation of Retinoid X receptor RXR alpha
Quick reminder: number only, in nM, skip the unit.

Use the examples below as a reference point.
C/C(=C\c1ccc(C(=O)O)o1)c1cc2c(cc1C)C(C)(C)CCC2(C)C :: 592
C/C(=C\c1ccc(C(=O)O)s1)c1cc2c(cc1C)C(C)(C)CCC2(C)C :: 11

Briefly, EC50 measured for C/C(=C\c1ccc(C(=O)O)cn1)c1cc2c(cc1C)C(C)(C)CCC2(C)C : 105

Briefly, EC50 measured for C/C(=C\c1cc(C(=O)O)cs1)c1cc2c(cc1C)C(C)(C)CCC2(C)C : 201

Briefly, EC50 measured for C/C(=C\c1csc(C(=O)O)c1)c1cc2c(cc1C)C(C)(C)CCC2(C)C : 112

====

Target: Retinoic acid receptor alpha (Homo sapiens)
Sequence (P10276 whole entry): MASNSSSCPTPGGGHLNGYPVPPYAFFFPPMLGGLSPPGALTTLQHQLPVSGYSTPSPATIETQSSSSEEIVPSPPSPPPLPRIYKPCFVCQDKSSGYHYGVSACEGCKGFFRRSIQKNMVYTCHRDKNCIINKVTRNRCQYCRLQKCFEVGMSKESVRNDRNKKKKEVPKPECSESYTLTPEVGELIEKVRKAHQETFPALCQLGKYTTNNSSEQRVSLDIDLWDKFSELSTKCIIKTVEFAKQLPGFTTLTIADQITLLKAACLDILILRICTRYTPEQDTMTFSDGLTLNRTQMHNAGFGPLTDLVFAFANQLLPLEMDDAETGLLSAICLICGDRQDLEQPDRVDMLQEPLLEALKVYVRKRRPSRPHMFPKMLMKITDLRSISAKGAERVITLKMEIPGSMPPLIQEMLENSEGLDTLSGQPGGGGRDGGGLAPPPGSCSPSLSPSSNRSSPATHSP
Assay: Transcriptional activation of Retinoic acid receptor RAR alpha
ENDPOINT LABEL: EC50

Use the examples below as a reference point.
C/C(=C\c1cc(C(=O)O)cs1)c1cc2c(cc1C)C(C)(C)CCC2(C)C :: > 10 µM
C/C(=C\c1cccc(C(=O)O)c1)c1cc2c(cc1C)C(C)(C)CCC2(C)C :: > 10 µM
C/C(=C\c1ccc(C(=O)O)o1)c1cc2c(cc1C)C(C)(C)CCC2(C)C :: > 10 µM

Briefly, EC50 measured for C/C(=C\c1ccc(C(=O)O)cn1)c1cc2c(cc1C)C(C)(C)CCC2(C)C : 2.69 µM

Briefly, EC50 measured for C/C(=C\c1csc(C(=O)O)c1)c1cc2c(cc1C)C(C)(C)CCC2(C)C : > 10 µM

Briefly, EC50 measured for C/C(=C\c1ccc(C(=O)O)s1)c1cc2c(cc1C)C(C)(C)CCC2(C)C : > 10 µM

====

Listing of recorded pEC50 by entry.
Biological target: Retinoic acid receptor gamma (Homo sapiens, UniProt P13631)
Sequence (P13631 whole entry): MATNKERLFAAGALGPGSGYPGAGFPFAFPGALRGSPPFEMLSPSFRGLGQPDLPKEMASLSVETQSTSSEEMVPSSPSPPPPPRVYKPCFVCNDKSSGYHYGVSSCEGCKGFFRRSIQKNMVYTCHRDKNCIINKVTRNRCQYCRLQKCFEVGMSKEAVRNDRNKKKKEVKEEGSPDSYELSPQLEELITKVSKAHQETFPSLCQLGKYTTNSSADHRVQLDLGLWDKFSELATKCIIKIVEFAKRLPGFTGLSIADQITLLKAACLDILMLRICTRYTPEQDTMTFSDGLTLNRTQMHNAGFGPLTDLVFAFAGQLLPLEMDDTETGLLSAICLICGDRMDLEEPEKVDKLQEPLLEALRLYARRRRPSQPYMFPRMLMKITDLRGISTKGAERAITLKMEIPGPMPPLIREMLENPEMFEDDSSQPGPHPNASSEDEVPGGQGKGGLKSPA
Assay: Transcriptional activation of Retinoic acid receptor RAR gamma
pEC50: −log10 of the molar value.

Use the examples below as a reference point.
C/C(=C\c1ccc(C(=O)O)cn1)c1cc2c(cc1C)C(C)(C)CCC2(C)C :: 6.43
C/C(=C\c1ccc(C(=O)O)s1)c1cc2c(cc1C)C(C)(C)CCC2(C)C :: 7.43
C/C(=C\c1cccc(C(=O)O)c1)c1cc2c(cc1C)C(C)(C)CCC2(C)C :: < 5.00
C/C(=C\c1cc(C(=O)O)cs1)c1cc2c(cc1C)C(C)(C)CCC2(C)C :: < 5.00
C/C(=C\c1ccc(C(=O)O)o1)c1cc2c(cc1C)C(C)(C)CCC2(C)C :: < 5.00

Now turn to the next molecule.
Briefly, pEC50 measured for C/C(=C\c1csc(C(=O)O)c1)c1cc2c(cc1C)C(C)(C)CCC2(C)C : < 5.00
